biological target: Voltage-gated potassium channel subunit beta-2 (Rattus norvegicus) (UniProt P62483); experiment: inhibitors of rat Kvbeta2 reductase activity – biochemical, NADPH fluorescence, primary screen (AID 622); conditions: recombinant KvBeta, 4-cyanobenzaldehyde reduction, at 10 µM, hits give high values;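 further: slope of raw intensity against log time taken from 70 to 1610 s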
Sequence (P62483 whole entry, looked up): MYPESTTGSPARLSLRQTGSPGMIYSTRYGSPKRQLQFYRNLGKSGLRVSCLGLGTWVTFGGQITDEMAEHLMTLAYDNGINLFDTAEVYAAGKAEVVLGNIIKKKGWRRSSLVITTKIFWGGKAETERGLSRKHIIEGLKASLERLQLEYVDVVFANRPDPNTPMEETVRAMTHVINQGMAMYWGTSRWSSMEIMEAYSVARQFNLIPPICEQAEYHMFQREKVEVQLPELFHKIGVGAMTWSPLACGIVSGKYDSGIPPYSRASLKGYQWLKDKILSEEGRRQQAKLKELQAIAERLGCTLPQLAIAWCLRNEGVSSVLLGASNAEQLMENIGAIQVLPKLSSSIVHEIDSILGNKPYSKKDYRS
MEASUREMENT_NAME: fluorescence slope
Note: the reply should be a number with no unit written.

Example cases with answers are listed next.
>  <COMPOUND>
Cc1ccc2nsnc2c1S(=O)(=O)N1CCN(Cc2ccc3c(c2)OCO3)CC1

>  <fluorescence slope>
-0.468

$$$$
>  <COMPOUND>
O=C(O)CCc1ccc(-c2ccccc2)n1CC(=O)O

>  <fluorescence slope>
-0.564

$$$$
>  <COMPOUND>
O=C(Cn1nc(C(F)(F)F)c2c1CCCC2)NCCN1CCOCC1

>  <fluorescence slope>
-0.516

$$$$
>  <COMPOUND>
O=c1[nH]c2c(s1)C(c1ccco1)C1C3CCC(C3)C1S2 (stereo not given)

>  <fluorescence slope>
-0.574

$$$$
>  <COMPOUND>
O=C(c1ccc(Cl)cc1)C1CCN(C(=O)NC2CCCCC2)CC1

>  <fluorescence slope>
-0.541

$$$$

Lookup: Report fluorescence slope for Clc1ccc(SCCn2ccnc2)cc1 please.
Found: -0.325

Lookup: Please do the same for CCOC(=O)/C=C(\C)Sc1cc(=O)oc2ccccc12 as well.
Found: -0.549

Lookup: Please do the same for CC(C)(C)C(=O)N=C1SC2CS(=O)(=O)CC2N1c1ccc2c(c1)OCO2 (stereo not given) as well.
Found: -0.546

###

As shown below, each of these molecules has a reported inhibition value.
assay: inhibitors of TNFa-induced NFkB p65 translocation, primary screen, imaging, HUVEC, MLSMR starter and 10KST1 sets (AID 438); conditions: HUVEC TNFa-induced p65 nuclear translocation; at 2 µM, hits give high values, 0% TNFa-plus-vehicle, 100% no-TNFa wells;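 further: compound added about 3h40 before a 20 min TNFalpha stimulation; signal is the nuclear over cytoplasmic p65 intensity ratio per well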
Write the number in % without appending the unit.

>  <MOLECULE>
Cc1ccc(CCNC(=O)C2CCN(S(=O)(=O)c3cccc4nsnc34)CC2)cc1

>  <UNITS_TEXT>
%

>  <inhibition>
5.2

$$$$
>  <MOLECULE>
O=c1c(-c2ccc(F)cc2)coc2c3c(ccc12)OCCO3

>  <UNITS_TEXT>
%

>  <inhibition>
0.7

$$$$
>  <MOLECULE>
COC(=O)c1ccccc1NC(=O)c1noc2c1CC(C(C)(C)C)CC2 (centres undefined)

>  <UNITS_TEXT>
%

>  <inhibition>
4.9

$$$$
>  <MOLECULE>
Cc1nnc(SCc2cnc(-c3ccccc3)o2)[nH]c1=O

>  <UNITS_TEXT>
%

>  <inhibition>
-2.2

$$$$
>  <MOLECULE>
O=S(=O)(NCC(O)COCc1ccco1)c1cccs1 (centres undefined)

>  <UNITS_TEXT>
%

>  <inhibition>
8

$$$$
>  <MOLECULE>
COc1ccc(C2=Nn3c(nnc3-c3cccnc3)SC2)cc1

>  <UNITS_TEXT>
%

>  <inhibition>
-0.8

$$$$
>  <MOLECULE>
Cc1cc2oc(=O)cc(CN3CCN(Cc4ccc5c(c4)OCO5)CC3)c2cc1C

>  <UNITS_TEXT>
%

>  <inhibition>
6.8

$$$$
>  <MOLECULE>
CCn1c(SCC(=O)N2CCCc3ccccc32)nnc1-c1cccs1

>  <UNITS_TEXT>
%

>  <inhibition>
1.4

$$$$

Turning now to a further molecule:
Lookup: Report inhibition for COc1ccc(C2CC(=O)c3cnc(NC(=O)c4ccccc4OC)nc3C2)c(OC)c1 (centres undefined) please.
Found: -6.7
